Reference source: patent EP4725969A1

- target_under_test: T1, recombinant human HER2 extracellular domain protein (human, UniProt P04626 23-652)
- T1 construct: range 23-652; Range is printed for the immunogen/panning protein; also called ErbB2; recombinant HER2 protein
- procedure_details: BLI, Protein A capture
Entries and their Kd values follow.
Give the value in nM but do not write nM after it.

>  <binder>
2126-Hu-L21 (antibody, IgG1, V domains shown, IgG1/Cκ) VH: QVQLVQSGSELKKPGASVKVSCKASGYTFTDYSMHWVRQAPGQGLEWMGWINTETGEPTYADDFKGRFVFSLDTSVSTAYLQISSLKAEDTAVYFCVRVGRYDYAMDYWGQGTTVTVSS VL: DIQMTQSPSSLSASVGDRVTITCKASQDVYTAVAWYQQKPGKAPKLLINSASYRYTGVPSRFSGSGSGTDFTLTISSLQPEDFATYYCQQYYSTPPTFGGGTKVEIK

>  <metric>
Kd

>  <assay_result>
1.77

$$$$

Now consider a different binder.
# lookup: Kd of 2126-Hu-L09 (antibody, IgG1, V domains shown, IgG1/Cκ) VH: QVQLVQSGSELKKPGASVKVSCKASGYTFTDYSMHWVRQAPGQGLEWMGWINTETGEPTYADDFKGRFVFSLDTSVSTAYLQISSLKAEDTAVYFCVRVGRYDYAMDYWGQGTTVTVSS VL: DIQMTQSPSSLSASVGDRVTITCKASQDVYTAVAWYQQKPGKAPKLLINSASKRYTGVPSRFSGSGSGTDFTLTISSLQPEDFATYYCQQHYSTPPTFGGGTKVEIK 5.11
